Protocol Notes: chemical genetic growth profiling, strain panel (AID 1159580);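 further: tested at 20 µM; growth read once vehicle control cultures reached saturation at 30 °C; 1 = growth at the plate median or of vehicle wells; lower values mean less growth of the strain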
Condition Label: S. cerevisiae deletion strains, growth OD, locus YLR403W, strain SFP1, stronger effect = lower value
In all, about 5,500 compounds went through this assay and about 2,000 (36%) were called active. Another 18% or so got no clear call; they are omitted. This is one part of the list.
Recorded Endpoint: normalized growth
Write no unit; give the number alone.

# lookup: normalized growth of `O=C(Nc1cc2ccccc2s1)N1CCN(Cc2c(F)cccc2Cl)CC1`
0.906

# lookup: normalized growth of `CCOC(=O)NC(=S)Nc1ccc(C(C)(C)C)cc1NC(=S)NC(=O)OCC`
0.91

# lookup: normalized growth of `O=C(NC(=S)NNc1ncc(C(F)(F)F)cc1Cl)c1cccs1`
0.123

# lookup: normalized growth of `CC(C)(C)NC(=S)N/N=C\c1cc(Br)c(O)c(Br)c1`
0.92

# lookup: normalized growth of `O=C1Nc2ccccc2/C1=C\c1c[nH]c2ccccc12`
0.108

# lookup: normalized growth of `O=C(O/N=C1/CCCc2[nH]c3ccccc3c21)c1ccc(Cl)cc1Cl`
0.931
